- Read-out: urokinase plasminogen activator (uPA), PLAU (gene 5328)
- ASSAY EXPLANATION: BSK_BE3C_uPA: BioMAP Diversity Plus: BE3C Assay for urokinase plasminogen activator (uPA) Biomarker Activity (AID 2283038)
- ASSAY CONTEXT: primary human bronchial epithelial cells; actives raise or lower the signal
Calls of active or inactive are those of the source. Rule for the calls: active = hit-call score of the fitted dose curve at least 0.9, where 1 is the maximum; inactive = score below 0.9.
Answer with one of the outcomes given here: 1 (active), 0 (inactive)

Here are 3 molecules together with their reported answers.
SMILES ENTRY	LABEL VALUE
O=S(=O)(OCC(F)(F)F)C(F)(F)C(F)(F)C(F)(F)C(F)(F)F	0
Cc1cc(O)c(C(C)(C)C)cc1C(C)(C)C	1
O=C(O)C(F)(F)OC(F)(F)C(F)(F)OC(F)(F)C(F)(F)OC(F)(F)F	0

Status in this test for CCN(CC)c1ccc2c(c1)Oc1cc(N(CC)CC)ccc1C21OC(=O)c2ccccc21 ?
0

Field: outcome | Entry: Cc1ccc(O)c(-n2nc3ccccc3n2)c1
0

Which outcome was entered for the molecule Nc1cc([N+](=O)[O-])cc(Cl)c1O in this test?
0

----------
- Read-out: Macrophage colony-stimulating factor (MCSF), CSF1 (gene 1435)
- ASSAY EXPLANATION: BSK_LPS_MCSF: BioMAP Diversity Plus: LPS Assay for Macrophage colony-stimulating factor (MCSF) Biomarker Activity (AID 2283083)
- ASSAY CONTEXT: primary human HUVEC with PBMC; actives raise or lower the signal
- Protocol: BSK_LPS is a cell-based, multiplexed-readout assay that uses umbilical vein endothelium and peripheral blood mononuclear cells, a human vascular primary cell co-culture, with measurements taken at 24 hours after chemical dosing in a 96-well plate.BSK_LPS_MCSF is an assay component measured in the BSK_LPS assay. It measures M-CSF antibody related to regulation of gene expression using ELISA technology.Data from the assay component BSK_LPS_MCSF was analyzed into 1 assay endpoint. […]
Activity calls are given as the source filed them. Rule for the calls: active = hit-call score of the fitted dose curve at least 0.9, where 1 is the maximum; inactive = score below 0.9.
MEASURED ATTRIBUTE: AC50

COMPOUND	AC50
Cc1cc(O)c(C(C)(C)C)cc1C(C)(C)C	5.29 µM (active)
C=CC(=O)OCC(F)(F)C(F)(F)C(F)(F)C(F)(F)C(F)(F)C(F)(F)C(F)(F)C(F)F	inactive
OC(O)C(F)(F)C(F)(F)F	inactive
FC(F)(F)C(F)(F)C(F)(F)C(F)(F)C(F)(F)C(F)(F)C(F)(F)CCI	inactive
OCC(O)CC(F)(F)C(F)(F)C(F)(F)C(F)(F)F (centres undefined)	inactive

# return AC50 for each item in the list
1. O=S(=O)(Cl)C(F)(F)C(F)(F)C(F)(F)C(F)(F)C(F)(F)C(F)(F)C(F)(F)C(F)(F)F
2. CCN(CC)c1ccc(N=Nc2ccccc2)cc1

["inactive", "20 µM (active)"]

----------
- Read-out: Monokine induced gamma interferon (MIG), CXCL9 (gene 4283)
- ASSAY EXPLANATION: BSK_BE3C_MIG: BioMAP Diversity Plus: BE3C Assay for Monokine induced gamma interferon (MIG) Biomarker Activity (AID 2283035)
- ASSAY CONTEXT: primary human bronchial epithelial cells; actives raise or lower the signal
Activity calls are given as the source filed them. How the source made its calls: active means hit-call score of the fitted dose curve at least 0.9, where 1 is the maximum; inactive means score below 0.9.
The categories you may choose from are True for active, False for inactive

Would you please look over these solved cases?
SMILES ENTRY	LABEL VALUE
CN(C(=O)C(F)(F)C(F)(F)C(F)(F)F)[Si](C)(C)C	False
O=C(O)C(F)(F)C(F)(F)C(F)(F)OC(F)(F)F	False
NC(=O)C(F)(F)C(F)(F)C(F)(F)C(F)(F)C(N)=O	False
O=C1C=CC(=O)N1c1ccc(Cc2ccc(N3C(=O)C=CC3=O)cc2)cc1	True
NC(=O)C(F)(F)C(F)(F)C(F)(F)C(F)(F)C(F)(F)C(F)(F)C(F)(F)F	False
O=C(O)C(F)(F)OC(F)(F)C(F)(F)OC(F)(F)C(F)(F)OC(F)(F)F	False

Test call for this molecule, please: C[C@]12CC[C@H]3C(=CCc4cc(O)ccc43)[C@@H]1CCC2=O
False

What did the test return for O=C(O)C(F)(F)C(F)(F)C(F)(F)C(=O)O ?
False

// param item: Nc1cc([N+](=O)[O-])cc(Cl)c1O ; yields the recorded call
False

Which outcome did this test record for the molecule CNS(=O)(=O)C(F)(F)C(F)(F)C(F)(F)C(F)(F)C(F)(F)C(F)(F)C(F)(F)C(F)(F)F ?
False
